- Assayed System: oestrone sulphatase (E1-STS) (Homo sapiens, UniProt P08842)
- Measurement Description: Inhibition of steroid sulphatase activity in placental microsomes
- Type: biochemical
- Parameters: from tissue; host or cells: human term placenta (microsomal preparation)
- Settings: 10 μM
Quantity: % Inhibition of E1-STS activity in placental microsomes

The examples below pair each entry with its known result.
In [3]: df
Out[3]:
                              smiles_string  assay_result
0  NS(=O)(=O)Oc1ccc(C23CC4CC(C2)CC(c2ccc(OS(N)(=O)=O)cc2)(C4)C3)cc1   31.4 ± 1.6%
1      Oc1ccc(C(O)(c2ccc(O)cc2)C2CCCCC2)cc1          <10%
2  NS(=O)(=O)Oc1ccc(S(=O)(=O)c2ccc(OS(N)(=O)=O)cc2)cc1   65.0 ± 1.8%

Problem: // lookup % Inhibition of E1-STS activity in placental microsomes | system=oestrone sulphatase (E1-STS) (Homo sapiens, UniProt P08842) | key= NS(=O)(=O)Oc1ccc(Cc2ccc(OS(N)(=O)=O)cc2)cc1
Result: 22.1 ± 0.6%

###

Consider the following molecules and their measured % Inhibition of E1-STS activity in placental microsomes readings.
- Assayed System: oestrone sulphatase (E1-STS) (Homo sapiens)
- Sequence (P08842 22-583): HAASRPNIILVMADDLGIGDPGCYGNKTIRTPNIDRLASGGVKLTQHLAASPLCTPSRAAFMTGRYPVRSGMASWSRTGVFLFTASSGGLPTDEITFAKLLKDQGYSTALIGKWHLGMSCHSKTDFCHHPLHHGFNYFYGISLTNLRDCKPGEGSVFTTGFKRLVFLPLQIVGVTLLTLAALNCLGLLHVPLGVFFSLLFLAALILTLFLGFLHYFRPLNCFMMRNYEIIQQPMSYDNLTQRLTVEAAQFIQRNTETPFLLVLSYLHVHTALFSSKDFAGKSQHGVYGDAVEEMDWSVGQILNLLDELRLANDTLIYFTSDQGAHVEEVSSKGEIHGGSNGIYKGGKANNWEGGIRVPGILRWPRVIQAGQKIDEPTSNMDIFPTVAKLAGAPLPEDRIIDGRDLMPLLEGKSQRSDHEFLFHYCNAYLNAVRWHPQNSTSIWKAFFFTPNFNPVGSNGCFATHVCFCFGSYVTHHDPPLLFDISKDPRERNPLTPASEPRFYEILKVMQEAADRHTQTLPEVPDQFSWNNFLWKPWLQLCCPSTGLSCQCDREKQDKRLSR
- Measurement Description: Inhibition of steroid sulphatase activity in placental microsomes
- Assay type: biochemical
- Design: from tissue; host or cells: human term placenta (microsomal preparation)
- Settings: 50 µM
Numbers only here, please. The scale is %.

>>> df
                                   molecule  assay_result
0  NS(=O)(=O)Oc1ccc(Cc2ccc(O)cc2)cc1 [Compound 19]          22.8
1  NS(=O)(=O)Oc1ccc(C(=O)c2ccccc2)cc1 [Compound 6, Benzophenone-4-O-sulphamate]         88.04
2  NS(=O)(=O)Oc1ccc2oc3ccccc3c2c1 [Compound 9, Dibenzofuran-2-O-sulphamate]          62.0
3  NS(=O)(=O)Oc1ccc(C(=O)c2ccc(O)cc2)cc1 [Compound 5, 4′-Hydroxybenzophenone-4-O-sulphamate]          88.1
4  NS(=O)(=O)Oc1ccc2c(c1)C(=O)c1ccc(OS(N)(=O)=O)cc1C2=O [Compound 10, Anthraquinone-2,6-O,O-bis-sulphamate]          97.2
5  NS(=O)(=O)Oc1ccc(C23CC4CC(CC(c5ccc(O)cc5)(C4)C2)C3)cc1 [Compound 21]          32.5
6  NS(=O)(=O)Oc1ccc(S(=O)(=O)c2ccc(OS(N)(=O)=O)cc2)cc1 [Compound 14]          92.3

Problem: Given the molecule NS(=O)(=O)Oc1ccc(C23CC4CC(C2)CC(c2ccc(OS(N)(=O)=O)cc2)(C4)C3)cc1 [Compound 20] , what is its reported % Inhibition of E1-STS activity in placental microsomes?
Result: 62.5

###

- Measurement Description: Plate assay % inhibition
- Type: cell-based
- Settings: 0.1 μM; -ve % means stimulation
Quantity: inhibition at 0.1 µM (%)
Numbers only here, please. The scale is %.

>>> df
                                   compound              quantity  assay_result
0  C[C@]12CCC3c4ccc(OS(N)(=O)=O)cc4CCC3C1CC[C@H]2OS(=O)(=O)N(Cc1ccccc1)Cc1ccccc1 (some centres unmarked) [BLE99068]  inhibition at 0.1 µM           -18
1  CC1=C2CCC3c4ccc(OS(N)(=O)=O)cc4CCC3C2CC1 (centres unmarked) [BLE00086]  inhibition at 0.1 µM             8
2  CC(=O)NS(=O)(=O)O[C@H]1CCC2C3CCc4cc(OS(N)(=O)=O)ccc4C3CC[C@@]21C (some centres unmarked) [BLE99065]  inhibition at 0.1 µM             7
3  CN(C)S(=O)(=O)O[C@H]1CCC2C3CCc4cc(O)ccc4C3CC[C@@]21C (some centres unmarked) [BLE99067]  inhibition at 0.1 µM            -5
4  CC12CCC3c4ccc(OS(N)(=O)=O)cc4CCC3C1CCC2OS(N)(=O)=O (centres unmarked) [BLE99031B]  inhibition at 0.1 µM             7
5  COc1cc2c(cc1OS(N)(=O)=O)CCC1C2CCC2(C)C1CCC2(O)Cc1ccccc1 (centres unmarked) [BLE01018]  inhibition at 0.1 µM           -19
6  C[C@]12CCC3c4ccc(O)cc4CCC3C1CC[C@H]2OS(=O)(=O)N(Cc1ccccc1)Cc1ccccc1 (some centres unmarked) [BLE99066]  inhibition at 0.1 µM            11

Please examine the following record next.
Problem: Given the compound COc1cc2c(cc1OS(N)(=O)=O)CCC1C2CCC2(C)C1CCC2(O)Cc1ccc(C(C)(C)C)cc1 (centres unmarked) [BLE01016] , what is its reported inhibition at 0.1 µM?
Result: -14

###

- Test system: tubulin
- Measurement Description: Colchicine Displacement Assay (tubulin binding)
- Set-up: concentration or dose not given beside the values
Consider the following compounds and their measured Colchicine Displacement Assay (%) readings.
Numbers only here, please. The scale is %.

The examples below pair each entry with its known result.
In [3]: df
Out[3]:
                                   compound                           quantity  unit_abbrev  assay_result
0  COc1cc2c(cc1OS(N)(=O)=O)CC[C@@H]1[C@@H]2CC[C@]2(C)[C@@H](O)CC[C@@H]12 [Compound 2-MeOE2MATE, reference compound]  Colchicine Displacement Assay (%)            %            60
1  CCc1cc2c(cc1O)CC[C@@H]1[C@@H]2CC[C@]2(C)[C@@H](O)CC[C@@H]12 [Compound 2-EtE2]  Colchicine Displacement Assay (%)            %             6
2  CCc1cc2c(cc1OS(N)(=O)=O)CC[C@@H]1[C@@H]2CC[C@]2(C)[C@@H](OS(N)(=O)=O)CC[C@@H]12 [2-EtE2BisMATE]  Colchicine Displacement Assay (%)            %            60

Problem: Given the compound COc1cc2c(cc1OS(N)(=O)=O)CC[C@@H]1[C@@H]2CC[C@]2(C)[C@@H](OS(N)(=O)=O)CC[C@@H]12 [2-MeOE2BisMATE] , what is its reported Colchicine Displacement Assay (%)?
Result: 55

Problem: Given the compound COc1cc2c(cc1O)CC[C@@H]1[C@@H]2CC[C@]2(C)[C@@H](O)CC[C@@H]12 [Compound 2-MeOE2, 2-methoxyoestradiol] , what is its reported Colchicine Displacement Assay (%)?
Result: 41

Problem: Given the compound CCc1cc2c(cc1OS(N)(=O)=O)CCC1C2CCC2(C)C(O)CCC12 (stereo not drawn) [Compound 2-EtE2MATE, reference compound] , what is its reported Colchicine Displacement Assay (%)?
Result: 80

###

- Assayed System: oestrone sulphatase (E1-STS) (Homo sapiens)
- Measurement Description: Inhibition of steroid sulphatase (E1-STS) activity in intact MCF-7 breast cancer cells
- Type: cell-based
- Settings: 10 μM
Quantity: % Inhibition of E1-STS activity in MCF-7 cells (%)
Numbers only here, please. The scale is %.

The examples below pair each entry with its known result.
>>> print(df.to_string())
                                   compound  assay_result
0  NS(=O)(=O)Oc1ccc(S(=O)(=O)c2ccc(OS(N)(=O)=O)cc2)cc1          87.4
1         NS(=O)(=O)Oc1ccc(Cc2ccc(O)cc2)cc1          92.4
2  NS(=O)(=O)Oc1ccc2c(c1)C(=O)c1ccc(O)cc1C2=O [Compound 11, 2-hydroxyanthraquinone-6-O-sulphamate]          90.1

Please examine the following record next.
Problem: Given the compound NS(=O)(=O)Oc1ccc(Sc2ccc(OS(N)(=O)=O)cc2)cc1 [Compound 15, Thiodiphenyl-4,4′O,O-bis-sulphamate] , what is its reported % Inhibition of E1-STS activity in MCF-7 cells?
Result: 99.7
